Kindly supply the reported inhibition at 25 µM values for the records listed here.
- subject_of_test: recombinant human PAI-1 (Homo sapiens)
- Sequence (P05121 24-402): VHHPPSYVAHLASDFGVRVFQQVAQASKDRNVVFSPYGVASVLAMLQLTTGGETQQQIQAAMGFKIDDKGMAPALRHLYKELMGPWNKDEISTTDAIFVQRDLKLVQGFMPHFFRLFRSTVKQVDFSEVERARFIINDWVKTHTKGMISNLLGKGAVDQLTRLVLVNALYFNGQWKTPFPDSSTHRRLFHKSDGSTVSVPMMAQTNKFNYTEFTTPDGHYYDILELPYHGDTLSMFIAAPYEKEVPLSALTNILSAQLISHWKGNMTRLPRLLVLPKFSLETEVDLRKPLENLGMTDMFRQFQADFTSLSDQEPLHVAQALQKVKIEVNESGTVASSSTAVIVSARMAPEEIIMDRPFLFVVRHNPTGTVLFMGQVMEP
- run_description: biochemical;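 note: PAI-1 preincubated with compound, then two-chain tPA added, residual tPA activity read with fluorogenic Pyr-Gly-Arg-MCA substrate after 30 min at room temperature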
- run_conditions: read-out: Inhibition Rate of PAI-1 Activity (%), Compound Concentration 25µM
One number for each entry, in %.

{"columns": ["compound", "property_label", "numeric_value"],
 "data": [
  ["CC(C)(C)c1ccc(CN(C(=O)C(=O)O)c2cccc(Oc3ccc(OC(F)(F)F)cc3)c2)cc1 [Compound 172]", "inhibition at 25 µM", 94],
  ["CC(C)(C)c1ccc(COc2ccc(Oc3ccc(OC(F)(F)F)cc3)cc2CCC(=O)O)cc1 [Compound 96]", "inhibition at 25 µM", 99],
  ["CC(C)(C)c1ccc(Oc2cccc(-c3ccc(OC(F)(F)F)cc3)c2OCC(=O)O)cc1 [Compound 113]", "inhibition at 25 µM", 97]
]}

For every listed record, write down its inhibition at 25 µM.
1. CCCCOc1ccc(-c2ccc(OC(F)(F)F)cc2)cc1N(CCCCc1ccccc1)C(=O)C(=O)O [Compound 231]
2. CC(C)(C)c1ccc(COc2cc(Oc3ccc(OC(F)(F)F)cc3)ccc2CCC(=O)O)cc1 [Compound 78]
3. CCCOc1ccc(N(Cc2ccc(C(C)(C)C)cc2)C(=O)C(=O)O)c(-c2ccc(OC(F)(F)F)cc2)c1 [Compound 198]
4. CC(C)(C)c1ccc(COc2c(OCC(=O)O)cccc2-c2ccc(OC(F)(F)F)cc2)cc1 [Compound 117]

94
98
85
96
